Data origin: ChEMBL document CHEMBL3885881

Organism: Rattus norvegicus
method notes: DrugMatrix - Regimen: Daily Repeat
Format: toxicity, organism-based, Sprague-Dawley
Parameters: regimen Daily Repeat, gender Male, age 6-8 weeks
measurement parameters: in vivo, po, 0 mg/kg, 72 h, tissue Blood, route oral GAVAGE, dose level Control, time 3 day, vehicle .5 % CMC
endpoint label: ABSOLUTE BASOPHIL

The cases that follow already have their ABSOLUTE BASOPHIL on record.
{"molecule": "CC(C)(Sc1cc(C(C)(C)C)c(O)c(C(C)(C)C)c1)Sc1cc(C(C)(C)C)c(O)c(C(C)(C)C)c1", "ABSOLUTE BASOPHIL": "0 CELLS/uL"}
{"molecule": "C[C@@H]1CC[C@H]2[C@@H](C)C(=O)O[C@@H]3O[C@@]4(C)CC[C@@H]1[C@]32OO4", "ABSOLUTE BASOPHIL": "0 CELLS/uL"}
{"molecule": "CC[C@]1(O)CC[C@H]2[C@@H]3CCC4=CCCC[C@@H]4[C@H]3CC[C@@]21C", "ABSOLUTE BASOPHIL": "16.7 cells/µL"}

Below: the item to evaluate.
// query Entry under review: COc1ccccc1OCC(O)COC(N)=O (centres undefined) . Reported ABSOLUTE BASOPHIL?
// result 0 CELLS/uL
